Target: ATP-dependent molecular chaperone HSP82 (Candida albicans (strain WO-1) (Yeast), UniProt C4YTQ8)
Sequence (C4YTQ8 whole entry): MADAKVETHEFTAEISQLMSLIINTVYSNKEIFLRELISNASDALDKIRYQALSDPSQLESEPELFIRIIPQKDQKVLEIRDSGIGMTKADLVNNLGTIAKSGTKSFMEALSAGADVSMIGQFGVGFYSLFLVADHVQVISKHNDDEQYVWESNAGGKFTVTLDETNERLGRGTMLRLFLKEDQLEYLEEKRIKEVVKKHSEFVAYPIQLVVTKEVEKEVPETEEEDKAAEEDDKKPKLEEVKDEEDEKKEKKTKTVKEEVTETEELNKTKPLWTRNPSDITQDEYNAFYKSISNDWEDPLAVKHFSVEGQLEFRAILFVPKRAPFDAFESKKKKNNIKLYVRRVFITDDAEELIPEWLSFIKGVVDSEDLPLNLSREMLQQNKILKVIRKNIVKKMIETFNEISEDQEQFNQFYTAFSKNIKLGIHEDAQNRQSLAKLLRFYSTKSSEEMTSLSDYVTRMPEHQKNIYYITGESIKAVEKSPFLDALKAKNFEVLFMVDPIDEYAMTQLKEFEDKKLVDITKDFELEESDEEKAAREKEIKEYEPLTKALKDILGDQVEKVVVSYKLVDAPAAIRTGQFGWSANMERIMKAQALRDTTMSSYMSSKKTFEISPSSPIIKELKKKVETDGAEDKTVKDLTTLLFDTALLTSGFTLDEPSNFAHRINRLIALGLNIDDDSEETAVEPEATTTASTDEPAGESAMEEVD
Assay: loss of DOC-induced GRE-beta-galactosidase reporter signal, dose response, Hsp90 inhibitor project, S. cerevisiae, luminescence (AID 2400);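 note: beta-galactosidase luminescence from glucocorticoid response element reporter as proxy for Hsp90 function; inhibitor potency where signal loss means Hsp90 inhibition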
Assay type: functional, cell-based
The source made the active and inactive calls.
The reply should be one of these categories: Yes = active, No = inactive

Molecule	Group
COc1ccc(OC)c(C2C(C(=O)c3cc4ccccc4o3)=C(O)C(=O)N2c2cc(C)on2)c1 (stereo not given)	Yes
O=C(Oc1cc2oc(=O)c3c(c2cc1Cl)CCCC3)c1cccs1	Yes
COc1ccc(C(=O)N2c3ccccc3C=CC2C#N)cc1 (stereo not given)	No
CSC(=Nc1ccc(Br)cc1F)NS(=O)(=O)c1cccs1	Yes

Lab note: next molecule to report on.
INPUT: Just curious, what result did Cc1cccc(C(=O)CC(=O)c2cc(Cl)ccc2O)c1 get here?
OUTPUT: Yes

----------
Biological target: Peroxisome proliferator-activated receptor gamma/Nuclear receptor coactivator 1 (Homo sapiens, UniProt P37231)
Sequence (P37231 whole entry): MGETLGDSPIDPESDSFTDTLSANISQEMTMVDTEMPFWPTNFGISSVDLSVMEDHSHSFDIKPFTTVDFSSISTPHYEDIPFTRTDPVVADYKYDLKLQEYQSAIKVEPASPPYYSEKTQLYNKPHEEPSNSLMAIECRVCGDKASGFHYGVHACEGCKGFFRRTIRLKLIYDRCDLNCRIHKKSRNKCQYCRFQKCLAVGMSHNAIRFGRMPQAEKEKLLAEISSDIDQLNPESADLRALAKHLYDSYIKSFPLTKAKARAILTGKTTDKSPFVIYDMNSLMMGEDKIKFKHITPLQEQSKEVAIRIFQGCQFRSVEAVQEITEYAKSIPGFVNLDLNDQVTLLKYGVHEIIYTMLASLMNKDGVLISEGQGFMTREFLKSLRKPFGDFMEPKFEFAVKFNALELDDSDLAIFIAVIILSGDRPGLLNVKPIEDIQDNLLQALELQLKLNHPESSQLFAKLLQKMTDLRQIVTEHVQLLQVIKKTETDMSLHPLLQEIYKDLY
Sequence (Q15788 whole entry, further chain): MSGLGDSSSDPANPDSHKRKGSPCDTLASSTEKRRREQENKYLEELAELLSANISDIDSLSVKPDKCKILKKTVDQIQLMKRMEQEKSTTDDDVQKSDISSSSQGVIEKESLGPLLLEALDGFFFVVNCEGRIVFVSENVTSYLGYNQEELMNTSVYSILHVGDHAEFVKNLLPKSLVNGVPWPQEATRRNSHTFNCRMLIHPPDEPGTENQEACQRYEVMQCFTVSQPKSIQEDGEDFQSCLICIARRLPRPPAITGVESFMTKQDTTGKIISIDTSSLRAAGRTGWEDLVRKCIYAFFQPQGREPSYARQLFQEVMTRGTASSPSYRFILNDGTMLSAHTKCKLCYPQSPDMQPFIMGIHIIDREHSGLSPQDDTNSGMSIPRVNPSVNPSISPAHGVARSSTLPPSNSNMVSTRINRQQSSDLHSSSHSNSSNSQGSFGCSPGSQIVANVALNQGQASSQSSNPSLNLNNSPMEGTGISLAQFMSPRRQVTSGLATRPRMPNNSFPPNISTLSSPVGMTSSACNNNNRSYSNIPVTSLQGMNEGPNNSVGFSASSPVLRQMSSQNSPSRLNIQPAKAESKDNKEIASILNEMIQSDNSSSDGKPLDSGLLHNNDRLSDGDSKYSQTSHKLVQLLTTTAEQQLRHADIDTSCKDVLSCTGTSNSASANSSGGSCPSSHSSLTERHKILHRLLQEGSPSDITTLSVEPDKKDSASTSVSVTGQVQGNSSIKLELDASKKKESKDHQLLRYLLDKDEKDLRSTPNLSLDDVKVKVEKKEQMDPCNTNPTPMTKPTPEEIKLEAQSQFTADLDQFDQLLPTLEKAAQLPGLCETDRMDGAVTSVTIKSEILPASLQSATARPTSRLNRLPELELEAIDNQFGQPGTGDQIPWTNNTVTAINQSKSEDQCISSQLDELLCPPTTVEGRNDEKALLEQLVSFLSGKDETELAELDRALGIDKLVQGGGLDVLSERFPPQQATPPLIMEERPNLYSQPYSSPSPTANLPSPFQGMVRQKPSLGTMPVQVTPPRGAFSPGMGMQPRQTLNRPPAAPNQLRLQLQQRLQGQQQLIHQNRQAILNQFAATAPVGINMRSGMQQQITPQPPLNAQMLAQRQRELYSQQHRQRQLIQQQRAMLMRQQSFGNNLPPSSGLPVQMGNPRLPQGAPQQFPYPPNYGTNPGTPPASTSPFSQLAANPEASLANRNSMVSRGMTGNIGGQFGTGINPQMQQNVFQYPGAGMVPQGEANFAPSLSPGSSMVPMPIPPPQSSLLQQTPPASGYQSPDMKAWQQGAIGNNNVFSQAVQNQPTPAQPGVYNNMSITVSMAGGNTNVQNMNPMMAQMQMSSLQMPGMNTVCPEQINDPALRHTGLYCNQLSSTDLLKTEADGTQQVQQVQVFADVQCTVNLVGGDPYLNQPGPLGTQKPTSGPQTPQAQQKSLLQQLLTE
Test: TR-FRET dose response biochemical High Throughput Screening assay for agonists of the steroid receptor coactivator 1 (SRC-1) recruitment by the peroxisome proliferator-activated receptor gamma (PPAR gamma): non-selective agonists. [Related pubchem assays (depositor defined):AID1300, AID1808, AID504735, AID631]
Format: protein assay
The source made the active and inactive calls.
The reply should be one of these categories: yes for active, no for inactive

Molecule	Group
COc1ccc(OC)c(C2C(C(=O)c3cc4ccccc4o3)=C(O)C(=O)N2c2cc(C)on2)c1 (centres undefined)	no
CCCC1O[C@@H]2CC3C4CCC5=CC(=O)C=C[C@]5(C)C4C(OC(C)=O)C[C@]3(C)[C@]2(C(=O)COC(C)=O)O1 (some centres undefined)	yes
Cn1c(=O)cc(SCC(=O)N2CCN(Cc3ccc4c(c3)OCO4)CC2)c2ccccc21	no

INPUT: Just curious, what result did CCOC(=O)N1CCC(NC(=O)CSc2cc(=O)n(C)c3ccccc23)CC1 get here?
OUTPUT: no

----------
Biological target: Replicative DNA helicase DnaB (Mycobacterium tuberculosis, UniProt P9WMR3)
Sequence (P9WMR3 1-399, added parts left off): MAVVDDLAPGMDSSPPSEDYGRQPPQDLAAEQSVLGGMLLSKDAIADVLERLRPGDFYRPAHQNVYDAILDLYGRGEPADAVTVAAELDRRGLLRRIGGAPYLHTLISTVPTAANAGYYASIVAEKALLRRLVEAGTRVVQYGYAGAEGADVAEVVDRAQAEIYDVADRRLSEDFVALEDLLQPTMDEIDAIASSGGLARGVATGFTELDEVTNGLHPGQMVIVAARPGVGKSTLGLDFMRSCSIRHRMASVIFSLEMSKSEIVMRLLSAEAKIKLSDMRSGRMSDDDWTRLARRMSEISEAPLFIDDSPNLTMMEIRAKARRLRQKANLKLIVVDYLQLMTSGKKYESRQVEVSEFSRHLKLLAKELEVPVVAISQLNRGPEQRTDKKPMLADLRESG
Assay: DnaB intein splicing inhibitors, dose response, biochemical, cell-free fluorescence (AID 449749)
Assay type: functional
Active and inactive are the calls of the source.
The reply should be one of these categories: active, inactive

Compound	Group
Cc1ccc(C(=O)C(OC(=O)CN2C(=O)c3ccccc3C2=O)c2ccccc2)cc1C (stereo not drawn)	active
Cc1ccc(N2C(=O)C(Cl)=C(N3CCN(C)CC3)C2=O)c(C)c1	active
CCN(CC)C(=O)CSc1nnc2nnc3cc(Cl)ccc3n12	inactive
COc1ccc(-c2[nH]nc3c2C(c2ccsc2)C(C#N)=C(N)O3)cc1 (stereo not drawn)	active

INPUT: Just curious, what result did CCCCCCOc1ccc(C(=O)n2cnc(N)n2)cc1 get here?
OUTPUT: active

INPUT: Just curious, what result did Cc1cc(OC(=O)c2ccccc2)n(CCC#N)n1 get here?
OUTPUT: active

INPUT: Just curious, what result did Cc1ccc(S(=O)(=O)NCC2CCC(C(=O)NCCCN3CCOCC3)CC2)cc1 (stereo not drawn) get here?
OUTPUT: inactive

INPUT: Just curious, what result did N#CC1=C(N)Oc2[nH]nc(-c3ccccc3)c2C1c1cccnc1 (stereo not drawn) get here?
OUTPUT: active

INPUT: Just curious, what result did CCOC(=O)c1nnc(-c2cccs2)nc1Oc1ccc(Cl)cc1 get here?
OUTPUT: active

INPUT: Just curious, what result did CCOC(=O)c1c(C)oc2c1c(/C=N/CCO)c(O)c1ccccc12 get here?
OUTPUT: inactive

INPUT: Just curious, what result did CC(=O)N(C)C1=C(N2CCOCC2)C(=O)c2ccccc2C1=O get here?
OUTPUT: active

INPUT: Just curious, what result did O=C(O)CN1C(=O)/C(=C\c2cccc(OC(=O)c3ccco3)c2)SC1=S get here?
OUTPUT: active

INPUT: Just curious, what result did O=C(CCl)Nc1cccc(CP(=O)(c2ccccc2)c2ccccc2)c1 get here?
OUTPUT: active

----------
Listing of recorded IC50 by entry.
Target: Mannose-6-phosphate isomerase (Homo sapiens)
Experiment: human PMI inhibitors, high substrate, primary screen, biochemical, fluorescence intensity, high mannose 6-phosphate (AID 1220)
Activity calls are given as the source filed them.

// below: answered compounds
Compound	Assayed System	IC50
Nc1cc(-c2ccncc2)c[nH]c1=O [INAMRINONE]	Mannose-6-phosphate isomerase (Homo sapiens)	> 50 µM (not active)
COc1ccc2c(c1)-c1nc(/N=C/c3ccc(O)c(OC)c3)sc1CC2	Mannose-6-phosphate isomerase (Homo sapiens)	> 50 µM (not active)
Nn1cnnc1N/N=C\c1ccc(-c2ccccc2[N+](=O)[O-])o1	Mannose-6-phosphate isomerase (Homo sapiens)	> 50 µM (not active)
CCOC(=O)c1c(C)oc2c1c(/C=N/CCO)c(O)c1ccccc12	Mannose-6-phosphate isomerase (Homo sapiens)	4.48 µM (active)

Read the next record carefully.
INPUT: Quick one: IC50 of O=[N+]([O-])c1ccc2c(c1NCCc1ccccc1)=NC1(CCCCC1)[N+]=2[O-] ?
OUTPUT: > 50 µM (not active)

----------
Biological target: Streptokinase A (Streptococcus pyogenes serotype M1, UniProt P10520)
Sequence (P10520 whole entry): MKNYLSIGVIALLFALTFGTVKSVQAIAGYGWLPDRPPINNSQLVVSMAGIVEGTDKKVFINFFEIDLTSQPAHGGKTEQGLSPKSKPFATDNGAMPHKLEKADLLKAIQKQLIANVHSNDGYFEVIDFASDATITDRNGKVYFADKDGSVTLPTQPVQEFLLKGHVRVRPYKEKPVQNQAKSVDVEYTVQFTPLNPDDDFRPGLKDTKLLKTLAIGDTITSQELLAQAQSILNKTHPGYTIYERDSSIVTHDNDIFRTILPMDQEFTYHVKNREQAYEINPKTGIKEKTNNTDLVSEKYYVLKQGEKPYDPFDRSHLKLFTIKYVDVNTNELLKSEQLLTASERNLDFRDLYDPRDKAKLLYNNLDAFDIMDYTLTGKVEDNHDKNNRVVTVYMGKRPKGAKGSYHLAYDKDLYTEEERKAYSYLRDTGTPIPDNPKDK
Test: S. pyogenes streptokinase expression inhibitors, potency, dose response, plasminogen activation absorbance, OD405 (AID 1914);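 note: secreted streptokinase activity via plasminogen activation per viability signal from cell pellet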
Type: functional, Streptococcus pyogenes M1 GAS
Active and inactive are the calls of the source.
Result Type: EC50

CC1CCN(c2ccccc2NC(=O)c2ccc(Br)o2)CC1 43.6 µM (active)

INPUT: Quick one: EC50 of Cc1cccc(NC(=O)c2nc[nH]c2C(=O)N[C@@H](CC(C)C)C(=O)OCc2ccccc2)c1 ?
OUTPUT: > 150 µM (not active)

INPUT: Quick one: EC50 of S=c1[nH]cnc2scc(-c3ccc(Cl)cc3)c12 ?
OUTPUT: > 150 µM (not active)

----------
Cytochrome P450 3A4 (Homo sapiens): recorded AC50 for assorted compounds
Sequence (P08684 whole entry): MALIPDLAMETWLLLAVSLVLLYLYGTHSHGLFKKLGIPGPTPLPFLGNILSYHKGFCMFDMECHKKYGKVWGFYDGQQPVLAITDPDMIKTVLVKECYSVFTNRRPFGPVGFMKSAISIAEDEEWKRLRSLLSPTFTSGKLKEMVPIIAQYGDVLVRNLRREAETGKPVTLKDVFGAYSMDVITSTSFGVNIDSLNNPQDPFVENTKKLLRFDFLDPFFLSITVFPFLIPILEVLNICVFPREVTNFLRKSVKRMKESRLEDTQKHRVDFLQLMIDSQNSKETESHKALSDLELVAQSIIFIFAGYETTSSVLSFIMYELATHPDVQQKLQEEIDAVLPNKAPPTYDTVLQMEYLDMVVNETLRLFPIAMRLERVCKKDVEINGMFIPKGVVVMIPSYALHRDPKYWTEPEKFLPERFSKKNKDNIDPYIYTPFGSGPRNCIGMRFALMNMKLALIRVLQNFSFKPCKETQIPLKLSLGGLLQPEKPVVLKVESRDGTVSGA

// below: answered compounds
Compound	Assayed System	AC50
Cn1cc(-c2nc3cncnc3n(Cc3ccccc3Cl)c2=O)c2ccccc21	Cytochrome P450 3A4 (Homo sapiens)	7.94 µM (inconclusive)
COc1cc(C=C(C#N)C#N)cc(O)c1O	Cytochrome P450 3A4 (Homo sapiens)	10 µM (inconclusive)
CCCCCC1=C2CNC(CC(C)C)(C(=O)OC)C=C2C(C)C1=O (centres undefined)	Cytochrome P450 3A4 (Homo sapiens)	15.8 µM (inconclusive)
CC1=C(C#N)C(Nc2ccc(Cl)cn2)(C(F)(F)F)C(=O)N1 (centres undefined)	Cytochrome P450 3A4 (Homo sapiens)	15.8 µM (inconclusive)
COC(=O)[C@@]1(Cc2ccc(OC)cc2)[C@H]2c3cc(C(=O)N4CCCC4)n(CCCNc4ncc(C(F)(F)F)cc4Cl)c3C[C@H]2CN1C(=O)c1ccccc1	Cytochrome P450 3A4 (Homo sapiens)	1.26 µM (inconclusive)

INPUT: Param readout= AC50; system= Cytochrome P450 3A4 (Homo sapiens); entry= CC1CNC(=Nc2cccc3ccccc23)S1 (centres undefined) ; returns value.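 Note: CYP3A4 tested as one member of a cytochrome P450 panel screen.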
OUTPUT: 15.8 µM (inconclusive)

----------
Molecular target: Prothrombin (Bos taurus)
Test: thrombin inhibition, dose response, biochemical, fluorescence polarization, uHTS hits (AID 602369)
Type: functional
The source made the active and inactive calls.
The reply should be one of these categories: True for active, False for inactive

Example cases with answers are listed next.
Molecule	Group
Cc1ccc(CSc2nnc(SCC(=O)N/N=C/c3c[nH]c4ccccc34)s2)cc1	True
CCOc1ccc2nc(NC3=NC(=O)CC(c4ccc(OC)cc4)N3)nc(C)c2c1 (centres undefined)	True
CCc1ccc(NC(=O)C2CCN(S(=O)(=O)c3ccc4c(c3)NC(=O)C(C)S4)CC2)cc1 (centres undefined)	True

Lab note: next molecule to report on.
INPUT: Just curious, what result did Cc1cc(C)c2c(N)c3cccc(C)c3nc2n1 get here?
OUTPUT: False

----------
Molecular target: Corticotropin-releasing factor receptor 2/Corticotropin-releasing factor-binding protein (Homo sapiens, UniProt P24387+Q13324)
Sequence (Q13324 whole entry): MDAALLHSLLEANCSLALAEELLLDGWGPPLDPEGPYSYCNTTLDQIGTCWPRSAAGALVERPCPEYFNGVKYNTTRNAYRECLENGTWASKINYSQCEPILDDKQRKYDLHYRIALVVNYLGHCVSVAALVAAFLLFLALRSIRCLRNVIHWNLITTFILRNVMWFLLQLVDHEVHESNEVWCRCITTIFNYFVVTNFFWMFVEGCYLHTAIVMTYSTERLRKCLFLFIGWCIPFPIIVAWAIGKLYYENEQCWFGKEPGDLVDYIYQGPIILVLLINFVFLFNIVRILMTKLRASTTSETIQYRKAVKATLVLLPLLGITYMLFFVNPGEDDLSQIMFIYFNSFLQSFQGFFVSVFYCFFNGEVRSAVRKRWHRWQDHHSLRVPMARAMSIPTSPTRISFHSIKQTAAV
Sequence (P24387 whole entry): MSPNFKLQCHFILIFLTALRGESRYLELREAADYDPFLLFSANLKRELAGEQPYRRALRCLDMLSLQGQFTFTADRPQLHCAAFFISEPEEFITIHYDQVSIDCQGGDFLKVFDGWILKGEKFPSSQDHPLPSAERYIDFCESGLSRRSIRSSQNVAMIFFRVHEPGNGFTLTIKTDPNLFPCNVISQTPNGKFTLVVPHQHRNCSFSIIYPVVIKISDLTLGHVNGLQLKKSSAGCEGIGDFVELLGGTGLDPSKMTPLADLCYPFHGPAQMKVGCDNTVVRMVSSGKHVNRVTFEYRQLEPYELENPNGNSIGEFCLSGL
Assay: activators of CRF receptor 2 with binding protein – uHTS hits, confirmation (AID 602473)
Assay type: functional
Details: read-out: EC50_Mean
Active and inactive are the calls of the source.
The reply should be one of these categories: active, inactive

Example cases with answers are listed next.
Molecule	Group
Cc1ccccc1N1CCN(C2CCCN(C(=O)c3cn4c(C)cccc4n3)C2)CC1 (configuration not stated)	inactive
Cc1ccc(NC(=O)COC(=O)c2cccnc2Cl)cc1S(=O)(=O)N1CCOCC1	inactive
COc1ccccc1Nc1ccc(S(=O)(=O)N2CCCCC2)cc1[N+](=O)[O-]	inactive

INPUT: Just curious, what result did CS(=O)(=O)N(Cc1ccccc1)c1ccc(C(=O)N2CCOCC2)cc1 get here?
OUTPUT: inactive

INPUT: Just curious, what result did COC(=O)/C=C1/SC(NNC(=O)c2ccc(Cl)cc2Cl)=NC1=O get here?
OUTPUT: inactive

INPUT: Just curious, what result did Cc1cccc(CCN2CCN=C2Nc2ccccc2)c1 get here?
OUTPUT: active

INPUT: Just curious, what result did CCc1ccc([C@@H]2CC=C(C(=O)O)[C@H](c3ccc(C(C)(C)C)cc3)N2S(=O)(=O)c2ccc(C)cc2)cc1 get here?
OUTPUT: active

INPUT: Just curious, what result did CCOc1cc(-c2cn(S(=O)(=O)c3cccc4nsnc34)nc2N)cc(OCC)c1OCC get here?
OUTPUT: inactive

INPUT: Just curious, what result did CN(C)P(=O)(NC(=O)c1cccn1C)N(C)C get here?
OUTPUT: inactive
